Data provenance is the supplement of paper PMC12042874.

METHOD: amyloid nucleation score (Sup35N fusion, yeast selection) (log enrichment); library NNK3; higher = more nucleation; inactive = no reads after selection;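 further: zero at mode of non-aggregating sequences after 7 days selection at 30°C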
MEASURED_ATTRIBUTE: amyloid nucleation score

In the examples that follow, each entry is paired with its recorded amyloid nucleation score.
SUBSTANCE	MEASURED_ATTRIBUTE	VALUE_OBSERVED
LRMWERMCAVSL	amyloid nucleation score	inactive
TMYVCWSMFEAIWDINHNTS	amyloid nucleation score	-0.26
KICVPSCSCTIFLDLFRY	amyloid nucleation score	2.56
NYYNQT	amyloid nucleation score	inactive
GMFARHVFMIIEPHRIIVFH	amyloid nucleation score	inactive
FSKVTFHSCGIQCERQVKNN	amyloid nucleation score	inactive
RNWLMANS	amyloid nucleation score	inactive
TRWHDGKRVSWKSTPNMLSV	amyloid nucleation score	inactive
PLPAYCGYVLIGVHGYPFDI	amyloid nucleation score	inactive
MLNAIGCLSWSQFPESLLLG	amyloid nucleation score	inactive

Value of amyloid nucleation score reported for the substance "SLWVSI" is inactive

Value of amyloid nucleation score reported for the substance "YVGYIDRWSSCYKVFWV" is inactive

Value of amyloid nucleation score reported for the substance "GLTLRRWINAFHRHVGNKGQ" is 0.592

Value of amyloid nucleation score reported for the substance "MFSPQSNRFSSFGNNSITGH" is inactive

###

METHOD: amyloid nucleation score (Sup35N fusion, yeast selection) (log enrichment); library NNK2; higher = more nucleation; inactive = no reads after selection
I would appreciate it if you labelled entries True when amyloid nucleation score is 0.08 or higher, otherwise False.

Hello, I need to know if "SASQDATPHGCGIGISLNTR" has measured amyloid nucleation score not below 0.08. Thanks! True

Hello, I need to know if "GSRDHKPWTNRMWFTYTVIR" has measured amyloid nucleation score not below 0.08. Thanks! False

Hello, I need to know if "NRSVCLYYFAQVYKCCSNAV" has measured amyloid nucleation score not below 0.08. Thanks! True

Hello, I need to know if "VFFGPTFCFVPYVNMRCLVP" has measured amyloid nucleation score not below 0.08. Thanks! True

Hello, I need to know if "KPIVITLLLSDCVRM" has measured amyloid nucleation score not below 0.08. Thanks! True

Hello, I need to know if "RNFFPHGFWSLQTKYNVLFM" has measured amyloid nucleation score not below 0.08. Thanks! True

Hello, I need to know if "NPIGFFHDLGVWIWWSSMAT" has measured amyloid nucleation score not below 0.08. Thanks! False

Hello, I need to know if "LEVYVLFTVTYAVMRMNMDG" has measured amyloid nucleation score not below 0.08. Thanks! True

Hello, I need to know if "TVKNRA" has measured amyloid nucleation score not below 0.08. Thanks! True

Hello, I need to know if "LISEVALGFAPMKIVRGFLD" has measured amyloid nucleation score not below 0.08. Thanks! False

Hello, I need to know if "IDVMVMVRQSAKEQSSVRGC" has measured amyloid nucleation score not below 0.08. Thanks! True

Hello, I need to know if "TVFPMREIEVLFDSIWYGFN" has measured amyloid nucleation score not below 0.08. Thanks! True

Hello, I need to know if "RAQFIQLGDEYYTRC" has measured amyloid nucleation score not below 0.08. Thanks! True

Hello, I need to know if "CDAGFEIVLSLIN" has measured amyloid nucleation score not below 0.08. Thanks! False

Hello, I need to know if "NRLPFKYLSIDIYPCLASLA" has measured amyloid nucleation score not below 0.08. Thanks! False

Hello, I need to know if "HMAVNTTALAKNLITG" has measured amyloid nucleation score not below 0.08. Thanks! False

Hello, I need to know if "VSNRLRLSFKRVPHHAGYRP" has measured amyloid nucleation score not below 0.08. Thanks! True

Hello, I need to know if "RTSHSLRWMVRPYRRADPMR" has measured amyloid nucleation score not below 0.08. Thanks! True

Hello, I need to know if "SIFVTYSLRTYINYK" has measured amyloid nucleation score not below 0.08. Thanks! True

Hello, I need to know if "YLLMTKCVTVAERMGIMISC" has measured amyloid nucleation score not below 0.08. Thanks! False

Hello, I need to know if "VYALTGMDKYGGLALYLSWR" has measured amyloid nucleation score not below 0.08. Thanks! True

Hello, I need to know if "VMFEFNLAGSDSSDKAAMVT" has measured amyloid nucleation score not below 0.08. Thanks! False

Hello, I need to know if "IHDWKQSYVNVC" has measured amyloid nucleation score not below 0.08. Thanks! True

Hello, I need to know if "TRDNST" has measured amyloid nucleation score not below 0.08. Thanks! True

Hello, I need to know if "FHIQTRCMCGGMRYIFYVWY" has measured amyloid nucleation score not below 0.08. Thanks! True

Hello, I need to know if "VNSNINFMEGYGCFKKIVNF" has measured amyloid nucleation score not below 0.08. Thanks! False

Hello, I need to know if "FVWGREMGCWCQEWYRCMRN" has measured amyloid nucleation score not below 0.08. Thanks! False

Hello, I need to know if "LVAFLGQIEPSRTQRTLGSG" has measured amyloid nucleation score not below 0.08. Thanks! False

Hello, I need to know if "GFEGMSMADRKKGEVRAIWG" has measured amyloid nucleation score not below 0.08. Thanks! True

Hello, I need to know if "GVYWILFIAWLRKVRWYSDV" has measured amyloid nucleation score not below 0.08. Thanks! False

Hello, I need to know if "RLKGGFVEGPSGRVTCVRIT" has measured amyloid nucleation score not below 0.08. Thanks! True

Hello, I need to know if "ESPTVCPANF" has measured amyloid nucleation score not below 0.08. Thanks! False
